Experimental target: human CD8 on human T cells (human, UniProt P01732 22-235)
Sequence (P01732 22-235): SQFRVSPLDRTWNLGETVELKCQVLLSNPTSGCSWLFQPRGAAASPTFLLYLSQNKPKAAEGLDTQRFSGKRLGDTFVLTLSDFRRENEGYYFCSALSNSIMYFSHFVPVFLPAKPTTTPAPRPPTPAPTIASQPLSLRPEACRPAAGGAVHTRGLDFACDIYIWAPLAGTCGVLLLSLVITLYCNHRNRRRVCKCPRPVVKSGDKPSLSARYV
Experimental details: cell-based or functional assay
Flag rule - EC50 of pSTAT4 signaling in human CD8+ T cells less than 10 pM flags True; the remaining entries get False.

Ask: Does 02A01-Fab-IL12 (LC) (other) VH: EVQLQQSGPELVKPGASLKISCKASGYTFTDFTMHWVKQSHGKSLEWIGLVNPNNGGNIYNQNFKGKATLTVDTSSSTAYMELRSLTSEDSSVYYCGRVPLYTSHGMDYWGQGTSVTVSS VL: DIVLTQSPAFLAVSLGQRATISCRASESVDSYDINSMHWYQQKPGQPPKLLIYRASHLQSGIPARFSGSGSRTDFTLTINFVEADDVATYYCQQSNEDPLTFGAGTKLELK have EC50 of pSTAT4 signaling in human CD8+ T cells strictly under 10 pM?
Result: True
